Values were extracted from patent US12227479B2.

- assay.remarks: Blood pharmacokinetics after IV or PO administration to male CD-1 mice
- experimental.parameters: male, CD-1, mouse, blood, po, 30 mg/kg
assay.readout: AUC (µg·h/mL)
Could you give me the number in µg·h/mL? Just the number is fine.

Qu. Form field: reported AUC of COCCOC(=O)C1=C(C)NC(C)=C(C(=O)OC(C)C)C1c1ccc(C(C)(C)C)cc1 (stereo not shown)
Ans. 4.12

---

- assay.remarks: in vivo
- experimental.parameters: male, CD-1, mouse, po, 30 mg/kg
assay.readout: half-life
Numeric answer plus unit only.

Qu. What does the record list as half-life for COCCOC(=O)C1=C(C)NC(C)=C(C(=O)OC(C)C)C1c1cccc([N+](=O)[O-])c1 (racemic) ?
Ans. 7.27 h

---

- assay.remarks: Brain and blood exposure after PO administration to male CD-1 mice
- Format: in vivo, mouse
- experimental.parameters: mouse, blood; PO 30 mg/kg, 1 h, male CD-1 mice; read-out: Blood conc.
assay.readout: concentration at 1 h (ng/mL)
Give the value in ng/mL but do not write ng/mL after it.

[
  {
    "molecule": "COCCOC(=O)C1=C(C)NC(C)=C(C(=O)OC(C)C)C1c1ccc(C(C)(C)C)cc1 (centres unmarked)",
    "assay.result": 518
  }
]

Turning now to a further molecule:
Qu. Which value of concentration at 1 h has been reported for COCCOC(=O)C1=C(C)NC(C)=C(C(=O)OC(C)C)C1c1cccc([N+](=O)[O-])c1 (racemic) in the records?
Ans. 70

---

- assay.remarks: Brain and blood exposure after PO administration to male CD-1 mice
- Format: in vivo, mouse
- experimental.parameters: mouse, blood; PO 30 mg/kg, 3 h, male CD-1 mice; read-out: Blood conc.
assay.readout: concentration at 3 h (ng/mL)
API: value field is a number in ng/mL; no unit string.

[
  {
    "compound": "COCCOC(=O)C1=C(C)NC(C)=C(C(=O)OC(C)C)C1c1cccc([N+](=O)[O-])c1 (racemic) [nimodipine]",
    "concentration at 3 h (ng/mL)": 62
  }
]

# context switch: different compound, same concentration at 3 h
Qu. May I ask what concentration at 3 h has been recorded for COCCOC(=O)C1=C(C)NC(C)=C(C(=O)OC(C)C)C1c1ccc(C(C)(C)C)cc1 (centres unmarked) [Example 9] ?
Ans. 607

---

Reported Kp at 1 h is given for each of the following compounds.
- assay.remarks: Brain and blood exposure after PO administration to male CD-1 mice
- Assay type: in vivo, mouse
- experimental.parameters: mouse, brain/blood; PO 30 mg/kg, 1 h, male CD-1 mice; read-out: Brain/Blood ratio
Provide a numeric answer; units are not to be included.

[
  {
    "compound": "COCCOC(=O)C1=C(C)NC(C)=C(C(=O)OC(C)C)C1c1cccc([N+](=O)[O-])c1 (racemic)",
    "Kp at 1 h": 1.9
  }
]

Kindly review the next compound as well.
Qu. Kp at 1 h lookup needed for COCCOC(=O)C1=C(C)NC(C)=C(C(=O)OC(C)C)C1c1ccc(C(C)(C)C)cc1 (centres unmarked) , thanks.
Ans. 1.2

---

- assay.remarks: in vivo
- experimental.parameters: male, CD-1, mouse, iv, 1 mg/kg
assay.readout: half-life (min)
Quick note: give the figure in min, leave out the unit.

Qu. Any idea what half-life was measured for COCCOC(=O)C1=C(C)NC(C)=C(C(=O)OC(C)C)C1c1cccc([N+](=O)[O-])c1 (racemic) [nimodipine] ?
Ans. 34.8

---

- assay.remarks: Blood pharmacokinetics after IV or PO administration to male CD-1 mice
- experimental.parameters: male, CD-1, mouse, blood, iv, 1 mg/kg
assay.readout: Cmax (ng/mL)
Report the figure in ng/mL without appending any unit label.

Qu. Any idea what its Cmax is? The molecule is COCCOC(=O)C1=C(C)NC(C)=C(C(=O)OC(C)C)C1c1ccc(C(C)(C)C)cc1 (stereo not shown)
Ans. 228

---

- assay.remarks: in vivo
- experimental.parameters: male, CD-1, mouse, iv, 1 mg/kg
assay.readout: clearance (L/h/kg)
Give just the numeric value; L/h/kg need not be written.

Qu. For the compound COCCOC(=O)C1=C(C)NC(C)=C(C(=O)OC(C)C)C1c1cccc([N+](=O)[O-])c1 (racemic) , what clearance is on record?
Ans. 5.33
